System: CAKI-1
Test: NCI tumour cell line growth inhibition, 48 h
Active and inactive are the calls of the source. Rule as the data show it: active = GI50 up to about 1.1 µM and inactive = higher.
Reply using exactly one outcome from active, inactive

As a guide, the following entries are already answered.
> print(dat)
                                   compound       cat
1  COc1cc(/C=C/C(=O)CC(=O)/C=C/c2cc(C)c(O)c(OC)c2)cc(C)c1O  inactive
2  COC1CC(COCc2ccccc2)CC(OC)O1 (stereo not given)  inactive
3  COC(=O)CC(C(C(=O)OC)C(=O)OC)N1C(=O)OC(c2ccccc2)C1c1ccccc1 (stereo not given)  inactive
4  COC(=O)C1=C(C)NC2=C(C(=O)c3ccccc32)C1c1c[nH]nc1-c1ccccc1 (stereo not given)  inactive
5  Nc1ccc(C(=O)c2cn(CCN3CCOCC3)c3ccccc23)c2ccccc12  inactive

Asked: # outcome recorded in this test, key = "O=C(c1cc(Cl)ccc1Cl)N1CCN(c2ccc(Cl)c(Cl)c2)CC1"
Given back: inactive

Asked: Please state the recorded outcome for this compound: "CN(C)CCNC(=O)c1cc(NC(=O)c2cc(NC(=O)CC/C=C3/[C@@H]4CC[C@H]3N=N4)cn2C)cn1C"
Given back: inactive

Asked: I'd appreciate the recorded outcome for O=C(O)C12CCC(CC1=O)C2 (stereo not given) from this test.
Given back: inactive

Asked: Record lookup: outcome of this test for O=C(C1OC1c1cccc([N+](=O)[O-])c1)C12CC3CC(CC(C3)C1)C2 (stereo not given) ?
Given back: inactive

Asked: // param item: C[N+](C)(C)CC(=O)N/N=C(\C(=O)NC1=C(Cl)C(=O)c2ccccc2C1=O)C(C#N)c1nc(-c2ccc([N+](=O)[O-])cc2)cs1 (stereo not given) ; yields the recorded call
Given back: inactive

Asked: Tell me the recorded outcome of this test for "Cn1c(=O)c2[nH]c(N/N=C3/SCC(=O)N3Cc3ccccc3)nc2n(C)c1=O" .
Given back: inactive

Asked: For this compound, state the assay outcome: "C=CCN1C(=O)CS/C1=N\NC(=O)CSc1nc2ccccc2c(=O)n1CC"
Given back: inactive

Asked: Dear all, I need the recorded test outcome for CC1(C)CC(=O)C2=C(C1)OC1=C(C(=O)CC(C)(C)C1)C2CC(c1ccccc1)c1ccc(O)c(O)c1O (stereo not given) , thank you.
Given back: inactive

* * *

# GI50 listing for each entry below
Tested on: HOP-62
Assay: NCI tumour cell line growth inhibition, 48 h
Calls of active or inactive are those of the source. Cut-off read from the data, not from the text of the source: active = GI50 up to about 1.1 µM and inactive = higher. Square brackets hold non-standard residues; d marks the D form. Peptide text beside a SMILES is read from it. * marks the point of attachment. ξ: configuration not given here. ξF = NC(Cc1ccccc1)C(=O)O; Cbz = O=C(OCc1ccccc1)*; Aib = CC(C)(N)C(=O)O

Worked examples, 8 molecules total:
> print(dat)
                                   molecule        readout.value
1       O=C(O)/C=C/n1c2ccccc2c(=O)c2ccccc21  > 100 µM (inactive)
2           COc1ccc(-n2sc3ncc(C)cc3c2=O)cc1   18.2 µM (inactive)
3  CC(C)(NC(=O)OCc1ccccc1)C(=O)NC(Cc1ccccc1)C(=O)O (stereo not given) (Cbz-[Aib]-[ξF]-OH)  > 100 µM (inactive)
4    O=C(CCc1ccc(O)c(O)c1)NCCc1cc(O)cc(O)c1  > 100 µM (inactive)
5  Cc1ccc(C)c(NC(=O)/C(=N\N)C(c2cnc3ccc([N+](=O)[O-])cc3n2)[N+](=O)[O-])c1 (stereo not given)     40 µM (inactive)
6                     O[C@]12CCCC[C@H]1CCC2  > 100 µM (inactive)
7  Cc1c2cc[n+](C)cc2c(C)c2c1[nH]c1ccc(Oc3ccccc3)cc12    0.578 µM (active)
8  CC1OC1C(=O)C1(O)C(C)C(O)C23OC2(C(O)c2c(O)cccc2C3=O)C1O (stereo not given) [CERVICARCIN]   0.0895 µM (active)

Asked: Dear colleague, I am looking for the recorded GI50 of the following molecule: "Cc1ccc([N+](=O)[O-])c2c(NCCNC(=O)Cn3ccnc3[N+](=O)[O-])ccnc12"
Given back: 20.7 µM (inactive)

Asked: # input molecule: O=C(O)c1ccc(C2SCc3nc4ccccc4n32)cc1 (stereo not given) ; wanted: its GI50
Given back: > 100 µM (inactive)

* * *

Tested on: MDA-N
Experiment: NCI tumour cell line growth inhibition, 48 h
Active and inactive are the calls of the source. No stated cut-off is given here; in the data, active = GI50 up to about 1.1 µM and inactive = higher.
Could you please pick one outcome from this set? active, inactive

Use the examples below as a reference point.
> print(dat)
                                   compound       cat
1           CCOP(=O)(/C=C/n1ccc(N)nc1=O)OCC  inactive
2  C=CCN1C(=O)CS/C1=N\NC(=O)CSc1nc2ccccc2c(=O)n1CC  inactive

From here, focus on the item given below.
Asked: How did this test come out for Cc1cc(C)c2c(c1)CC1(Cc3c(C)cc(C)cc3C1=O)C2=O (stereo unspecified) ?
Given back: inactive

* * *

Tested on: K562
Test: NCI tumour cell line growth inhibition, 48 h
Activity calls are given as the source filed them. No stated cut-off is given here; in the data, active = GI50 up to about 1.1 µM and inactive = higher.
The following compounds are shown together with reported GI50 values.

compound	GI50
N#CC(C#N)=c1c2ccccc2c(=C(C#N)C#N)c2ccccc12	19.9 µM (inactive)
CC(=O)NC1C(OCc2ccccc2)OC(CO)C(O)C1OCC(=O)NC(C)C(=O)NC(CCC(=O)NCCCCCC(=O)Nc1ccc2c(c1)CN1C(=O)c3ccccc3C1=N2)C(N)=O (centres undefined)	45 µM (inactive)
C=C1C(=O)O[C@@H]2C[C@@]3(C)CCC[C@H](C)C3=C[C@H]12 [HELENINE]	3.02 µM (inactive)
C=CCN(c1cc(OC)c2[nH]c(C(=O)OCC)c(C)c2c1[N+](=O)[O-])S(C)(=O)=O	15.1 µM (inactive)

Asked: Find the recorded GI50 belonging to CCOc1ccc2nc(NC(=O)C(=O)C(C#N)CC(C)(C)C=O)sc2c1 (centres undefined) and report it.
Given back: 52.7 µM (inactive)

Asked: So what does the record say about GI50 for "Cc1cc2c(=O)c3ccc(Cl)cc3[nH]c2c(C(N)=O)c1C" ?
Given back: 83.2 µM (inactive)

* * *

Test system: LOX IMVI
Assay: NCI tumour cell line growth inhibition, 48 h
Activity calls are given as the source filed them. No stated cut-off is given here; in the data, active = GI50 up to about 1.1 µM and inactive = higher. Non-standard residues stand in square brackets, D forms with d. Residues, ends and D or L forms follow the SMILES beside them. *: point of attachment. Ac5c = NC1(C(=O)O)CCCC1; Boc = CC(C)(C)OC(=O)*; tBu = CC(C)(C)*
readout-label: GI50

Answered cases to consult:
molecule	measured-on	GI50
CC(OC(C)(C)C)C(NC(=O)C(CCCCNC(=O)OC(C)(C)C)NC(=O)C(Cc1c[nH]c2ccccc12)NC(=O)C(N)Cc1ccccc1)C(=O)NC(Cc1ccccc1)C(=O)NC1(C(=O)O)CCCC1 (centres undefined) (H-FWK(Boc)T(tBu)F[Ac5c]-OH; configuration not given here)	LOX IMVI	> 100 µM (inactive)
COC(=O)CC(C(C(=O)OC)C(=O)OC)N1C(=O)OC(c2ccccc2)C1c1ccccc1 (centres undefined)	LOX IMVI	38.9 µM (inactive)
Cc1c2ccncc2c(C)c2c1[nH]c1ccc(Oc3ccccc3)cc12	LOX IMVI	1.93 µM (inactive)

Asked: # query: GI50 of entry "NC(=S)Nc1nc(=S)[nH]c2[nH]ccc12"
Given back: 27.7 µM (inactive)

* * *

System: LOX IMVI
Assay: NCI tumour cell line growth inhibition, 48 h
Activity calls are given as the source filed them. Rule as the data show it: active = GI50 up to about 1.1 µM and inactive = higher.
readout-label: GI50

Example entries begin here.
> print(dat)
                                   compound        readout.value
1  O=C(C#Cc1ccccc1)Nc1ccccc1CC(c1c[nH]c2ccccc12)c1c[nH]c2ccccc12   7.43 µM (inactive)
2  O=C(c1cc(Cl)ccc1Cl)N1CCN(c2cccc(Cl)c2)CC1   10.9 µM (inactive)
3  FC(F)(F)c1ccc2nc(NCc3ccccc3)c(-c3ccccc3)nc2c1   26.3 µM (inactive)
4              O=C(SC1=NCCN1)c1cccc2ccccc12  > 100 µM (inactive)
5             Cc1ccc(/C=C(\C#N)c2ccccc2)cc1  > 100 µM (inactive)

Asked: Hi! What's the reported GI50 for O=C1C2C(c3ccccc3)NC(c3ccccc3)C1C(c1ccccc1)NC2c1ccccc1 (configuration not stated) on LOX IMVI?
Given back: > 100 µM (inactive)

Asked: # value lookup — system LOX IMVI, readout GI50, item "O=S1(=O)CS(=O)(=O)OCCCCCO1"
Given back: > 100 µM (inactive)

Asked: Observed GI50 on LOX IMVI for O=c1c2ncn(C3CC(O)C(CO)O3)c2nnn1Cc1ccccc1[N+](=O)[O-] (configuration not stated) , please.
Given back: > 100 µM (inactive)

Asked: Write down the reported GI50 of "COc1ccc(NCc2cccc3c(=O)c4ccc(Cl)cc4oc23)cc1" , test system: LOX IMVI.
Given back: > 100 µM (inactive)

Asked: Tell me reported GI50 for Oc1cnc2c(O)cccc2c1 [JINEOL] , tested with LOX IMVI.
Given back: 26.2 µM (inactive)

Asked: Form entry - test system: LOX IMVI; read-out: GI50; compound: "CCOP(=O)(OCC)/C(F)=C/c1ccccc1"
Given back: > 100 µM (inactive)

Asked: Form field - read-out: GI50; system: LOX IMVI; submitted item: OC1CC(O)O[C@H](c2ccccc2)C1 (some centres not stated)
Given back: > 100 µM (inactive)
